Values from patent US12649745B2

Entries and their measured IC50 follow.
Biological target: human Autotaxin (ATX) (Homo sapiens, UniProt Q13822)
Construct: generate a full length human ENPP2 ORF with or without a 3′-6×His tag; 6xHis (C); made in house; host or cells: FreeStyle 293-F cells (transient transfection), purified from culture supernatant
Assay: Human ATX enzyme inhibition assay (LPC substrate, choline oxidase/HRP/Amplex Red coupled format)
Type: biochemical
Conditions: recombinant hATX 1 nM, 18:1 LPC 30 μM, fluorescence at 90 mins minus 5 mins
Just the number in nM, nothing appended.

compound=N#Cc1cc(Cl)cc2c1C[C@@H](Nc1ncc3c(n1)CN(CC1COC1)C3=O)C2 value_reported=3
compound=CC1(CN2Cc3nc(N[C@H]4Cc5cc(Cl)cc(C#N)c5C4)ncc3C2=O)COC1 value_reported=6
compound=CCN1Cc2nc(N[C@H]3Cc4cc(Cl)cc(C#N)c4C3)ncc2C1=O value_reported=2
compound="O=C1c2cnc(NC3Cc4ccc(Cl)cc4C3)nc2CN1C1CC2(C1)CC(F)(F)C2 (centres unmarked)" value_reported=42
compound=N#Cc1cc(Cl)cc2c1C[C@@H](Nc1ncc3c(n1)CN(C1CC1)C3=O)C2 value_reported=2
compound=N#Cc1cc(Cl)cc2c1C[C@@H](Nc1ncc3c(n1)CCN(C1CCOCC1)C3=O)C2 value_reported=4

Exercise: Record request: IC50 value, item CC1(N2Cc3nc(N[C@H]4Cc5cc(Cl)cc(C#N)c5C4)ncc3C2=O)COC1
Solution: 5

Exercise: May I ask what IC50 has been recorded for CC1(N2Cc3nc(N[C@H]4Cc5cc(Cl)cc(C#N)c5C4)ncc3C2=O)CC(F)(F)C1 ?
Solution: 4

###

Target: human Autotaxin (ATX) (Homo sapiens)
Construct: generate a full length human ENPP2 ORF with or without a 3′-6×His tag; 6xHis (C)
Assay: Human ATX enzyme inhibition assay (LPC substrate, choline oxidase/HRP/Amplex Red coupled format)
Details: recombinant hATX 1 nM, 18:1 LPC 30 μM, fluorescence at 90 mins minus 5 mins
A collection of molecules and their measured IC50
Numbers only here, please. The scale is nM.

molecule="N#Cc1cc(Cl)cc2c1C[C@@H](Nc1ncc3c(n1)CN(CC(F)(F)F)C3=O)C2 [Example 10]" parameter=IC50 value_reported=2
molecule="N#Cc1cc(Cl)cc2c1C[C@@H](Nc1ncc3c(n1)CN(C1COC1)C3=O)C2 [Example 16]" parameter=IC50 value_reported=4
molecule="N#Cc1cc(Cl)cc2c1C[C@@H](Nc1ncc3c(n1)CN(CC1(O)CC1)C3=O)C2 [Example 24]" parameter=IC50 value_reported=9

Consider now this further molecule.
Exercise: Param item = CC(=O)N1CCC(N2Cc3nc(N[C@H]4Cc5cc(Cl)cc(C#N)c5C4)ncc3C2=O)CC1 [Example 25] ; retrieve measured IC50.
Solution: 6

###

The reader will find reported IC50 values listed item by item below.
Target: human Autotaxin (ATX) (Homo sapiens, UniProt Q13822)
Construct: generate a full length human ENPP2 ORF with or without a 3′-6×His tag; 6xHis (C)
Assay: Human ATX enzyme inhibition assay (LPC substrate, choline oxidase/HRP/Amplex Red coupled format)
Conditions: recombinant hATX 1 nM, 18:1 LPC 30 μM, fluorescence at 90 mins minus 5 mins
State the answer as a number, implicitly in nM.

molecule=N#Cc1cc(Cl)cc2c1C[C@@H](Nc1ncc3c(n1)CN(C1CCOCC1)C3=O)C2 parameter=IC50 value_reported=5

Exercise: Fill blank: measured IC50 of the molecule N#Cc1cc(Cl)cc2c1C[C@@H](Nc1ncc3c(n1)CN(C(CF)CF)C3=O)C2 is ____.
Solution: 4

Exercise: Entry N#Cc1cc(Cl)cc2c1C[C@@H](Nc1ncc3c(n1)CCN(CC(F)(F)F)C3=O)C2 has what IC50?
Solution: 3

Exercise: # get_value(readout='IC50', item= N#Cc1cc(Cl)cc2c1C[C@@H](Nc1ncc3c(n1)CCN(C1CCOC1)C3=O)C2 (mixture of isomers) )
Solution: 4

Exercise: Give the measured IC50 of N#Cc1cc(Cl)cc2c1C[C@@H](Nc1ncc3c(n1)CCN(C1COC1)C3=O)C2 .
Solution: 3

Exercise: Which measured IC50 value corresponds to N#Cc1cc(Cl)cc2c1C[C@@H](Nc1ncc3c(n1)CN(C1CC4(C1)CC(F)(F)C4)C3=O)C2 ?
Solution: 3

Exercise: Which IC50 value belongs to O=C1c2cnc(NC3Cc4ccc(Cl)cc4C3)nc2CN1C1CC(F)(F)C1 (stereo not shown) ?
Solution: 49

###

Molecular target: human Autotaxin (ATX) (Homo sapiens, UniProt Q13822)
Construct: generate a full length human ENPP2 ORF with or without a 3′-6×His tag; 6xHis (C); made in house; host or cells: FreeStyle 293-F cells (transient transfection), purified from culture supernatant
Assay: Human ATX enzyme inhibition assay (LPC substrate, choline oxidase/HRP/Amplex Red coupled format)
Type: biochemical
Settings: recombinant hATX 1 nM, 18:1 LPC 30 μM, fluorescence at 90 mins minus 5 mins
Measured pIC50 by item
Recall that pIC50 is obtained by taking minus log10 of the concentration measured in molar.

Use the examples below as a reference point.
compound="CC1(N2Cc3nc(NC4Cc5ccc(Cl)cc5C4)ncc3C2=O)COC1 (centres unmarked)" value_reported=6.74
compound=CC(C)N1CCc2nc(N[C@H]3Cc4cc(Cl)cc(C#N)c4C3)ncc2C1=O value_reported=8.70
compound="N#Cc1cc(Cl)cc2c1C[C@@H](Nc1ncc3c(n1)CN(C1CCOC1)C3=O)C2 (mixture of isomers)" value_reported=8.22
compound=N#Cc1cc(Cl)cc2c1C[C@@H](Nc1ncc3c(n1)CN(C1CC(F)(F)C1)C3=O)C2 value_reported=8.52
compound=N#Cc1cc(Cl)cc2c1C[C@@H](Nc1ncc3c(n1)CN([C@H]1C[C@H](O)C1)C3=O)C2 value_reported=8.30
compound=CC(C)N1Cc2nc(N[C@H]3Cc4cc(Cl)cc(C#N)c4C3)ncc2C1=O value_reported=8.52
compound=COCCN1Cc2nc(N[C@H]3Cc4cc(Cl)cc(C#N)c4C3)ncc2C1=O value_reported=8.30
compound=CC(C)(O)CN1Cc2nc(N[C@H]3Cc4cc(Cl)cc(C#N)c4C3)ncc2C1=O value_reported=8.30
compound=N#Cc1cc(Cl)cc2c1C[C@@H](Nc1ncc3c(n1)CNC3=O)C2 value_reported=8.70
compound=CC1(N2Cc3nc(N[C@H]4Cc5cc(Cl)cc(C#N)c5C4)ncc3C2=O)CC1 value_reported=8.70

Now for a further compound.
Exercise: Would you kindly share the measured pIC50 for CN1Cc2nc(N[C@H]3Cc4cc(Cl)cc(C#N)c4C3)ncc2C1=O ?
Solution: 8.52

###

Target: human Autotaxin (ATX) (Homo sapiens, UniProt Q13822)
Construct: generate a full length human ENPP2 ORF with or without a 3′-6×His tag; 6xHis (C)
Experiment: Human ATX enzyme inhibition assay (LPC substrate, choline oxidase/HRP/Amplex Red coupled format)
Conditions: recombinant hATX 1 nM, 18:1 LPC 30 μM, fluorescence at 90 mins minus 5 mins
Parameter: pIC50
Give only the number. pIC50 is defined as minus log10 of concentration in molar units.

compound="N#Cc1cc(Cl)cc2c1C[C@@H](Nc1ncc3c(n1)CCN(CC1CC1)C3=O)C2 [Example 31]" parameter=pIC50 value_reported=8.70

Would you kindly look at the next entry?
Exercise: Return pIC50 measured with human Autotaxin (ATX) (Homo sapiens, UniProt Q13822) given this compound: CCN1CCc2nc(N[C@H]3Cc4cc(Cl)cc(C#N)c4C3)ncc2C1=O [Example 34]
Solution: 8.52

###

Molecular target: human Autotaxin (ATX) (Homo sapiens, UniProt Q13822)
Construct: generate a full length human ENPP2 ORF with or without a 3′-6×His tag; 6xHis (C)
Experiment: Human ATX enzyme inhibition assay (LPC substrate, choline oxidase/HRP/Amplex Red coupled format)
Conditions: recombinant hATX 1 nM, 18:1 LPC 30 μM, fluorescence at 90 mins minus 5 mins
Parameter: IC50 (nM)
Unit nM implied. Number only.

Consider the worked cases shown below.
compound=N#Cc1cc(Cl)cc2c1C[C@@H](Nc1ncc3c(n1)CN(CCF)C3=O)C2 target_or_test_system="human Autotaxin (ATX) (Homo sapiens, UniProt Q13822)" value_reported=2
compound=N#Cc1cc(Cl)cc2c1C[C@@H](Nc1ncc3c(n1)CCNC3=O)C2 target_or_test_system="human Autotaxin (ATX) (Homo sapiens, UniProt Q13822)" value_reported=3
compound="O=C1c2cnc(NC3Cc4ccc(Cl)cc4C3)nc2CN1C1COC1 (stereo not shown)" target_or_test_system="human Autotaxin (ATX) (Homo sapiens, UniProt Q13822)" value_reported=150

For the next question, use this compound.
Exercise: Using the record for N#Cc1cc(Cl)cc2c1C[C@@H](Nc1ncc3c(n1)CN(CC1CC1)C3=O)C2 , report its IC50.
Solution: 3
